Provide the recorded pKd for the entries that follow.
target: SARS-CoV-2 spike protein receptor binding domain (isolated RBD) (SARS-CoV-2, UniProt P0DTC2 319-541)
Give bare numbers, as −log10 of the molar value.

| binder | pKd |
| --- | --- |
| IMPI-055 (antibody, V domains shown) VH: QVQLVQSGAEVKKPGASVKVSCKASGYTFTSYDINWVRQATGQGLEWMGWMNPNSGNTGYAQKFQGRVTMTRDTSINTAYMELSSLRSEDTAVYFCARGGRYCSDVTCYSGEPFDYWGQGTLVTVSS VL: EIMLTQSPDFQSVTPKEKVTITCRASQSIGSSLHWYQQKPDQSPKLLIKFASQSISGVPSRFSGSGSGTDFTLTINSLEAEDAAAYYCHQSSSLPHTFGPGTKVEIK | 9.02 |

Here is another binder to look at.
Query string: Dear colleague, I am looking for the recorded pKd of the following binder: IMPI-047 (antibody, V domains shown) VH: EVQLVESGGGLIQPGGSLRLSCAASGFTVSSNYMNWVRQAPGKGLEWVSVIYSGGSTYYADSVKGRFTISRDNSKNTLYLQMNSLRTEDTAVYYCARDLVAYGMDVWGQGTTVTVSS VL: DIQLTQSPSFLSASVGDRVTITCWASQGISSYLAWYQQKPGKAPKVLIYAASTLQSGVPSRFSGSGSGTEFTLTISSLQPEDFATYYCQLLNSNPLTFGGGTKVEIK
Result string: 8.62
